Entries and their rp Gal-4NL, relative potency (IC50 (lactose)/IC50 (ligand))
target: Gal-4NL (Homo sapiens)
Construct: designated as Gal-4NL (aa 1-160), and Gal-4CL (aa 169-323), respectively; made in house; host or cells: E. coli Rosetta (DE3) pLysS
Sequence (P56470 1-160): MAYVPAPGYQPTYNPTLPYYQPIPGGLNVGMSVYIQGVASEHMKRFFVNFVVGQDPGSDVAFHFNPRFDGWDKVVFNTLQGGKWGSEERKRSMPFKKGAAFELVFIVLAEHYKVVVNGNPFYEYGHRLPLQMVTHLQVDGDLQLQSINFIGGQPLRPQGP
method: competitive ELISA, inhibition of binding of Gal-4NL subunit to immobilized ASF
study.conditions: Gal-4NL
value.type: rp Gal-4NL, relative potency (IC50 (lactose)/IC50 (ligand))

C[C@@H]1O[C@@H](O[C@H]2[C@H](O[C@H]3[C@H](O)[C@@H](O)C(O)O[C@@H]3CO)O[C@H](CO)[C@H](O)[C@@H]2O[C@H]2O[C@H](CO)[C@H](O)[C@H](O)[C@H]2O)[C@@H](O)[C@H](O)[C@@H]1O (some centres unmarked) [blood-group antigen B (6), blood-group antigen B type 6] : 11
CC(=O)N[C@H]1[C@@H](O[C@H]2[C@@H](O)[C@@H](CO)O[C@@H](O[C@H]3[C@H](O)[C@@H](O)C(O)O[C@@H]3CO)[C@@H]2O[C@@H]2O[C@@H](C)[C@@H](O)[C@@H](O)[C@@H]2O)O[C@H](CO)[C@H](O)[C@@H]1O (some centres unmarked) [blood-group antigen A (5), blood-group antigen A type 6] : 130
